target: T1, HER3 extracellular domain (ECD) (UniProt P21860 20-643); test: FortéBio biosensor (BLI), HER3 ECD on amine-reactive surface; average (Stdev 111,000)
T1 construct: extracellular domain; Coupled to an amine-reactive biosensor surface at 10-15 ug/ml; also called HER3 ECD; ErbB3
T1 sequence (P21860 20-643 limits assumed): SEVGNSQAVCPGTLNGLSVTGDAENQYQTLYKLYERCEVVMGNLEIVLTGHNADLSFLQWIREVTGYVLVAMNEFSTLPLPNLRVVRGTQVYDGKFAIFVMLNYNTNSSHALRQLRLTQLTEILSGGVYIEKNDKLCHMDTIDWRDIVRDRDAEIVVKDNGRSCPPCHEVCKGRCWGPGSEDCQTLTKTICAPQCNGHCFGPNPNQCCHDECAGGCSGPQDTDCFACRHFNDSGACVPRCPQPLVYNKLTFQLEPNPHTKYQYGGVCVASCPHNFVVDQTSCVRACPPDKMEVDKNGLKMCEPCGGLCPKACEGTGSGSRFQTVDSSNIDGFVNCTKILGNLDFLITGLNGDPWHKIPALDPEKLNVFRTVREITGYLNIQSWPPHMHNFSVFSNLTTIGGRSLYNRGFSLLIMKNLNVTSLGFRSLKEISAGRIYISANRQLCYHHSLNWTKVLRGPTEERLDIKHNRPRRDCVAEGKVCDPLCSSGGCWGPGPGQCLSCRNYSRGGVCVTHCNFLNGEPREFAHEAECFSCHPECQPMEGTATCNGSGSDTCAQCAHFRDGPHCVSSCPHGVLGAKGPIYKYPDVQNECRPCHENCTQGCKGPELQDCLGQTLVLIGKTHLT
measuredMetric: Kd (nM)
Hi! Could you send only the number? It should be in nM, unit omitted.

Q: For heregulin (ligand, UniProt Q02297-6 177-241, looked up, also called HRG) SHLVKCAEKEKTFCVNGGECFMVKDLSNPSRYLCKCPNEFTGDRCQNYVMASFYKHLGIEFMEAE , what is its reported Kd?
Result: 165
